# Test system: UACC-257
# test_description: NCI tumour cell line growth inhibition, 48 h
Calls of active or inactive are those of the source. Cut-off read from the data, not from the text of the source: active = GI50 up to about 1.1 µM and inactive = higher.
Thanks in advance; please answer with one of these: active, inactive

Query :: Outcome logged for O=[N+]([O-])c1ccc2c(c1)Cc1cc(/N=C/c3ccc4c(c3)OCO4)ccc1-2 in this assay:
Result :: inactive

Query :: Just curious, what result did CSC1=NN=C(SC)NN1 get here?
Result :: active

Query :: Test call for this compound, please: C=C1CCCC(C)(C)[C@H]1C/C=C1\CCOC1=O
Result :: inactive

Query :: # fetch the recorded call for COc1cc([C@H]2c3[nH]c4ccccc4c3C[C@H]3COC(=O)N32)cc(OC)c1O here
Result :: inactive

Query :: Hey, what did the test say about COc1ccc(N2C(=O)C3c4[nH]c5cccc(Cl)c5c4C4CCC(C(C)(C)C)CC4C3C2=O)cc1 (stereo not given) ?
Result :: inactive

###

# Tested on: SK-MEL-2
# test_description: NCI tumour cell line growth inhibition, 48 h
Active and inactive are the calls of the source. Rule as the data show it: active = GI50 up to about 1.1 µM and inactive = higher.
readout_kind: GI50

For record O=C1/C(=C/c2cccnc2)SC(=S)N1Cc1ccco1 the listed GI50 is 8.87 µM (inactive)

Quick note, GI50 for COc1ccc(-n2sc3ncccc3c2=O)cc1 landed at > 100 µM (inactive)

Memo: Cc1ccc(NC(=O)CCC/C(CC(=O)c2ccc(Br)cc2)=N/NC(=O)CC#N)cc1 , reported GI50: > 100 µM (inactive)

In plain terms, O=CC(O)C(O)C(O)C(O)C(=O)NCCCCCCCCCCCCNC(=O)C(O)C(O)C(O)C(O)C=O (stereo unspecified) has a documented GI50 of > 100 µM (inactive)

The reported GI50 of the molecule CCCCCCCC/C=C(\Br)C(O)C(Br)Br (stereo unspecified) was 24.8 µM (inactive)

Lab note: NC(=O)Cn1c(=O)[nH]c(=O)c2[nH]cnc21 gave GI50 of > 100 µM (inactive)

So, C=C1CCCC(C)(C)[C@H]1C/C=C1\CCOC1=O ? Its GI50 was 63.7 µM (inactive)

The recorded GI50 for N#Cc1nc(CCC(c2nc(C#N)c(N)o2)N2C(=O)c3ccccc3C2=O)oc1N (stereo unspecified) is > 100 µM (inactive)

Lab note: measured GI50 of CC1(C)CC(=O)C(C(=O)Nc2cccs2)=C(O)C1 was 35.9 µM (inactive)

According to the records, this molecule CCOc1ccccc1NC(=O)C(=O)Cc1nc2ccccc2s1 displays GI50 of > 100 µM (inactive)

Field GI50 (entry CCOC(=O)c1[nH]cc(C)c1-c1cccn1-c1ccc(Cl)cc1[N+](=O)[O-] ) reads 15.9 µM (inactive)

###

# System: SNB-75
# test_description: NCI tumour cell line growth inhibition, 48 h
Counter-ions that a name gives are not always drawn. Active and inactive are the calls of the source. No stated cut-off is given here; in the data, active = GI50 up to about 1.1 µM and inactive = higher. *1 amine or outer side, *2 acyl side, *3 side chain or, on linkers, in order; H or OH if unused. Where a SMILES comes first, the peptide text is derived from it. Bridges are numbered along the chain shown (N, C = ends). Roman numbers before positions name the chains, in order. [ ]: non-standard residue; d: D form. Actinocin(9to1) = Cc1c2oc3c(C)ccc(C(=O)[*:1])c3nc-2c(C(=O)[*:2])c(N)c1=O; Hyp = O=C(O)[CH]1C[CH](O)CN1; NMeV = CN[CH](C(=O)O)C(C)C; Sar = CNCC(=O)O
# output must be one of Yes (active), No (inactive)

Query :: Any idea what this test logged for CN(C)c1ccc(C=C2C(=O)N(c3ccccc3)N(c3ccccc3)C2=O)cc1 ?
Result :: No

Query :: # outcome recorded in this test, key = O=[N+]([O-])C(=C(Nc1cccc2cccnc12)Nc1cccc2cccnc12)C(Cl)=C(Cl)Cl
Result :: No

Query :: Which outcome did this test record for the molecule COc1cccc(/C=N/n2c(C)n[nH]c2=O)c1 ?
Result :: No

Query :: Any idea what this test logged for O=C(O)CCC(C(=O)O)N1C(=O)c2ccccc2C1=O (stereo unspecified) ?
Result :: No

Query :: Answer briefly: the call reported for COc1cc2c(cc1O)CCN[C@@]21CS[C@H]2c3c(OC(C)=O)c(C)c4c(c3C(COC1=O)N1C2C2c3c(cc(C)c(OC)c3O)CC([C@@H]1O)N2C)OCO4 (stereo partly specified) in this assay.
Result :: Yes

Query :: What is the recorded call for this molecule in the test? CO[C@@H](C(=O)OC1C=CC2(CC1)C(=O)N(C)c1ccccc12)c1ccccc1 (stereo partly specified)
Result :: No

Query :: // return assay outcome for COC(=O)C(C(=O)C(=O)Nc1nnc(S)[nH]1)c1csc(-n2nc(-c3ccccc3)cc2-c2ccccc2)n1 (stereo unspecified)
Result :: No

Query :: Per the assay record, what outcome was assigned to CC(C)CSCC1OC(n2cnc3c(N)nccc32)C(O)C1O (stereo unspecified) ?
Result :: No

Query :: Outcome? CCOC(=O)C1(C/C=C(/C)Cl)CCCC1=O (stereo unspecified)
Result :: No

Query :: Record lookup: outcome of this test for Clc1ccc(CSc2ncnc3c2ncn3C2CCCCO2)cc1 (stereo unspecified) ?
Result :: No

Query :: # outcome recorded in this test, key = CCOC(=O)c1nc2c(Cl)c3ncccc3cc2[nH]c1=O
Result :: No

Query :: // param item: CC1(C)C2CCC1(CC(=O)O)C(Cl)C2 (stereo unspecified) ; yields the recorded call
Result :: No

Query :: Which outcome was entered for the molecule Cc1nc2c3c(ccc2nc1O)C(=O)c1ccccc1C3=O in this test?
Result :: No

Query :: Which outcome was assigned to CCN(CC)CCNC(=O)c1nn(-c2ccc(Cl)cc2)c2c1CCc1cc(OC)ccc1-2 in this test?
Result :: No

Query :: Check the results log: what was the call for CC(=O)OC1CC2C(C)(C)C(=O)C=C[C@]2(C)C2CCC3(C)C(c4ccoc4)[C@@H](O)[C@H]4O[C@]43[C@]12C (stereo partly specified) ?
Result :: No

Query :: What is the recorded call for this molecule in the test? COc1cc2c(cc1OC)C(C(CO)CO)N(CC(O)CCl)CC2 (stereo unspecified)
Result :: No

Query :: What classification did CCCC[C@H]1CCN2C[C@@H](O)[C@@H](O)[C@H]2[C@@H]1O end up with in this test?
Result :: No

Query :: How did this test come out for CC1(C)OCC([C@H]2CC23SCCCS3)O1 (stereo partly specified) ?
Result :: No

Query :: So what was the verdict on Nc1ncnc2c1ncn2C1CC(O)C(CO)O1 (stereo unspecified) in this test?
Result :: No

Query :: What call does the record list for C=CCc1c(O)c2c(c3oc(=O)cc(C)c13)CC(C)O2 (stereo unspecified) ?
Result :: No

Query :: Status in this test for CC(NC(C)(C)C)C(=O)c1cccc(Cl)c1 (stereo unspecified) [BUPROPION HYDROCHLORIDE] ?
Result :: No

Query :: # fetch the recorded call for COC(=O)CCC(C)[C@H]1CCC2C3C(C[C@H](OC(C)=O)[C@@]21C)[C@@]1(C)CCC2(C[C@H]1C[C@H]3OC(C)=O)OOC1(CCCCCCC1)OO2 (stereo partly specified) here
Result :: No

Query :: Per the assay record, what outcome was assigned to CC1CC2C(=O)NC(=O)C2c2[nH]c3ccccc3c21 (stereo unspecified) ?
Result :: No

Query :: Just curious, what result did COc1cc(/C=C2\CC3C4CC[C@H]5C[C@@H](O)CC[C@]5(C)C4CC[C@]3(C)C2=O)cc(OC)c1OC (stereo partly specified) get here?
Result :: No

Query :: # outcome recorded in this test, key = Cc1cccc2[s+]snc12
Result :: No

Query :: Called result for CN1C(=O)[C@@H]2N(CSC2(C)C)C1=S
Result :: No

Query :: For this molecule, state the assay outcome: CCCCCCCCC[C@@H]1CC(=O)OCC2OC(O[C@H](CCCCCCCCC)CC(=O)OCC3OC(O[C@H](CCCCCCCCC)CC(=O)OCC4OC(O1)C(O)C(O)C4O)C(O)C(O)C3O)C(O)C(O)C2O (stereo partly specified)
Result :: No

Query :: Outcome? O=C(/C=C/c1ccco1)c1ccc(NCc2nc3ccccc3[nH]2)cc1
Result :: No

Query :: Which result was noted for this molecule in the test: C1=N\CCOCC/N=C\c2ccc(cc2)OCc2cccc(n2)COc2ccc/1cc2
Result :: No

Query :: In this assay, the call recorded for N#CCCN(CCN(CCN(C(=O)Nc1ccccc1)c1ccccc1)C(=O)Nc1ccccc1)C(=O)Nc1ccccc1 was what?
Result :: No

Query :: So what was the verdict on O=[PH](O)c1cc2c3ccccc3ccc2c2ccccc12 in this test?
Result :: No

Query :: Hi team, can someone confirm the assay call for Cc1c2oc3c(C)ccc(C(=O)NC4C(=O)NC(C(C)C)C(=O)N5CC(O)CC5C(=O)N(C)CC(=O)N(C)C(C(C)C)C(=O)OC4C)c3nc-2c(C(=O)NC2C(=O)NC(C(C)C)C(=O)N3CC(O)CC3C(=O)N(C)CC(=O)N(C)C(C(C)C)C(=O)OC2C)c(N)c1=O (stereo unspecified) (I: TV[Hyp][Sar][NMeV] / II: TV[Hyp][Sar][NMeV]; ester I:1-I:C, II:1-II:C; linker I:N-II:N via Actinocin(9to1); configuration not given here) ?
Result :: Yes

Query :: Hey, what did the test say about COC(=O)c1c[nH]c(=O)[nH]c1=O [ISOOROTIC ACID METHYL ESTER] ?
Result :: No

Query :: Record request — test call for NC(CCc1nc(-c2ccccc2)cs1)C(=O)O (stereo unspecified)
Result :: No

Query :: I would be grateful if you could indicate the recorded call for COc1ccc(N2C(=O)C3c4[nH]c5cccc(Cl)c5c4C4CCC(C(C)(C)C)CC4C3C2=O)cc1 (stereo unspecified) .
Result :: No

Query :: In this assay, the call recorded for CCOC(=O)CCC1(C(=O)O[C@@H]2C[C@H](C)CC[C@H]2C(C)C)CCCCC1=O (stereo partly specified) was what?
Result :: No

Where do these numbers come from? They come from ChEMBL document CHEMBL1201862.
